All figures here come from patent US20240164998A1.

experiment: Sensory evaluation of malodor prevention ability of group A against hexanal odor; set-up: species or system people; conditions: scale 0 (no malodor felt) to 10 (very strong); hexanal alone rated 8; 10 μL hexanal diluted 100 times + 1 μL test substance, 1 hour room temperature; average of panel of 20
Where a name gives a salt, the structure may show the parent alone.
experimental endpoint: Hexanal odor intensity

compound	reading
CC(c1ccccc1)C1CC1C(C)(C)O (centres unmarked) [Pamplefix, 50% triethyl citrate solution]	4.1
C=C(C)[C@@H]1CC[C@@H](C)C[C@H]1O	3.4
CC(C)[C@@H]1CC[C@@H](C)CC1=O [Menthone, reference compound]	6.9
CC(=O)C(C)=CC1C(C)=CCCC1(C)C (centres unmarked)	3.1
CC(=CCC1CC=C(C)C1(C)C)CO (centres unmarked)	3.9
CCCC(O)CCC1C(C)CCCC1(C)C (centres unmarked)	3.0
CC1CCC(C(C)C)C(OCC(O)CO)C1 (centres unmarked)	3.3
O=C1CCCC=CCCCCCCCCCC1	3.5
CCOC(=O)C(C)C(C)S (centres unmarked) [ethyl 3-mercapto-2-methylbutyrate]	3.1
CC1=CCC(C(C)C)C=C1 (centres unmarked)	4.1
CC(=O)C1(C)CC2=C(CCCC2(C)C)CC1C (centres unmarked)	3.9
C=C(C)C1CC=C(C)C(=O)C1 (centres unmarked) [Carvone, reference compound]	7.1
CCOC(=O)C1C(C)CCCC1(C)C (centres unmarked)	2.6
CCCCCC1C(=O)CCC1CC(=O)OC (centres unmarked)	4.2
